System: btrRCA5 to ATA5 capture oligonucleotide
Experiment: Accumulation and electronic hybridization in test buffers
Conditions: value +/− SEM; 50 mM buffer
Description: Microelectronic Chips, Permeation Layer and Instrumentation—These have been described previously with the following exception. […] Fluorescently labeled oligonucleotides on the chip were visualized using oblique illumination with two 594 nm HeNe lasers and the images were quantified using either NIH Image or IPLab Spectrum software packages. […]

| compound | specific hybridization |
| --- | --- |
| c1ccncc1 [pyridine] | 12.8 +/− 4.2 attomol |
| N[C@H](Cc1c[nH]cn1)C(=O)O [D-histidine] | 119 +/− 11.8 attomol |
| NCCC(=O)N[C@@H](Cc1cnc[nH]1)C(=O)O [carnosine] | 33.7 +/− 12.1 attomol |
| c1c[nH]cn1 [imidazole] | 21.2 +/− 6.6 attomol |
| Cc1cc(C)nc(C)c1 [collidine] | 14.1 +/− 4.6 attomol |
| N[C@@H](Cc1c[nH]cn1)C(=O)O [L-histidine] | 78.0 +/− 9.1 attomol |
| Cn1cncc1C[C@H](N)C(=O)O [1(π)-methylhistidine] | 30.0 +/− 5.0 attomol |
| Cn1cnc(C[C@H](N)C(=O)O)c1 [3(τ)-methylhistidine] | 54.0 +/− 14.8 attomol |

====

test: Conductivity measurements of transport buffers; type: physicochemical; details: conductivity
Listed next: entries and their corresponding Measurement 3.

| molecule | Measurement 3 / μS/cm |
| --- | --- |
| CC(=O)[O-].[Na+] [10 mM NaAcetate] | 983 |
| N[C@@H](CS)C(=O)O | 23.5 |

====

assay: Buffer conductivity and pH measurements; type: physicochemical; parameters: unit not given here; conditions: 50 mM, RT

| structure_string | conductivity |
| --- | --- |
| N[C@H](Cc1c[nH]cn1)C(=O)O | 57.1 +/− 0.3 |
| Cn1cncc1C[C@H](N)C(=O)O | 117 +/− 2.8 |
| NCCC(=O)N[C@@H](Cc1cnc[nH]1)C(=O)O | 74.5 +/− 5.5 |
| NCCC(=O)O | 3.6 +/− 0.6 |
| Cn1cnc(C[C@H](N)C(=O)O)c1 | 39.4 +/− 0.4 |
| c1c[nH]cn1 | 17.6 +/− 1.6 |
| NCC(=O)O | 2.5 +/− 0.2 |
| NCCCC(=O)O | 5.6 +/− 0.6 |
| c1ccncc1 | 5.0 +/− 0.8 |
| N[C@@H](Cc1c[nH]cn1)C(=O)O | 60.1 +/− 0.1 |
| N[C@@H](CS)C(=O)O | 9.0 +/− 0.9 |

====

assay: Buffer conductivity and pH measurements; assay type: physicochemical; settings: 50 mM, in water at room temperature
pH overview

| compound | pH |
| --- | --- |
| Cn1cnc(C[C@H](N)C(=O)O)c1 [3(τ)-methylhistidine] | 7.44 |
| N[C@H](Cc1c[nH]cn1)C(=O)O [D-histidine] | 7.70 |
| Cn1cncc1C[C@H](N)C(=O)O [1(π)-methylhistidine] | 7.59 |
| NCCC(=O)O [β-Alanine] | 6.71 |
| N[C@@H](Cc1c[nH]cn1)C(=O)O [L-histidine] | 7.65 |
| c1ccncc1 [pyridine] | 8.17 |
| N[C@@H](CS)C(=O)O [Cysteine] | 5.08 |
| NCCC(=O)N[C@@H](Cc1cnc[nH]1)C(=O)O [carnosine] | 8.07 |
| NCC(=O)O [glycine] | 6.01 |
| c1c[nH]cn1 [imidazole] | 9.08 |
| NCCCC(=O)O [GABA, g-amino-butyric acid] | 6.76 |
